# Tested on: SNB-75 CNS
# assay.details: NCI tumour cell line growth inhibition, 48 h
# key: entry, value: TGI

compound=O=[N+]([O-])c1cccc(/C=C/c2ccccn2)c1 system="SNB-75 CNS" result="75.4 µM"

Now for a further compound.
Ask: Report TGI for CC(C)C(C/C=C1/CC(CO)(COC(=O)C(C)(C)C)OC1=O)C(C)C (stereo unspecified) please.
Result: 21.1 µM

* * *

Below, each entry is listed with its recorded TGI.
# Tested on: M14 melanoma
# assay.details: NCI tumour cell line growth inhibition, 48 h

A selection of reference data follows.
compound="C=CC[N+]1(CCO)CCN=C1CCCCCCCCCCCCC (configuration not stated)" system="M14 melanoma" result="2.99 µM"
compound="CCN1CCC2(CC1)NC(=O)c1c(c3ccc(Cl)c(Cl)c3n1C)C2C#N (configuration not stated)" system="M14 melanoma" result="3.1 µM"
compound=FC(F)(F)c1[nH]ncc1-c1nc2c(N3CCCCC3)cc3[nH]ncc3c2c2c1CCCC2 system="M14 melanoma" result="1.42 µM"
compound="C=C1CC23CCC4C(C)(C(=O)O)CCCC4(C)C2CCC1C3 (configuration not stated)" system="M14 melanoma" result="> 100 µM"
compound="NC1=NN(c2ccccc2)C(=O)C1/C(=N\\NC(=O)c1cc2ccccc2cc1O)C(=O)Nc1nc([N+](=O)[O-])cs1 (configuration not stated)" system="M14 melanoma" result="> 95.5 µM"
compound="CC1=CSC(O)(c2ccc(Cl)cc2)c2noc(=O)n21 (configuration not stated)" system="M14 melanoma" result="> 100 µM"
compound=CCc1nc(-n2c(CC)nc3ccccc3c2=O)nc(N)c1-c1ccc(Cl)cc1 system="M14 melanoma" result="> 100 µM"
compound=CCNc1nc(N)c(C(=O)c2cccs2)s1 system="M14 melanoma" result="> 100 µM"
compound=COc1cc2c(cc1OC)C(=O)Cc1ccc3c(c1CNCC2)OCO3 system="M14 melanoma" result="> 100 µM"
compound=COc1ccc2nc3ccccc3c(NCCCCCN(CCCl)CCCl)c2c1 system="M14 melanoma" result="0.184 µM"

Ask: Notebook entry, M14 melanoma assay: TGI of N#Cc1nc(Sc2cnsn2)c(Sc2cnsn2)nc1C#N = ?
Result: 60.7 µM

Ask: Param readout= TGI; system= M14 melanoma; entry= C[n+]1c2ccccc2c(C(=O)NC(CCCN=C(N)N)C(=O)O)c2ccccc21 (configuration not stated) ; returns value.
Result: > 100 µM

* * *

# Tested on: 786-0 renal
# assay.details: NCI tumour cell line growth inhibition, 48 h
Below, each of the molecules is paired with its reported TGI value.
# unit: µM | format: bare number

molecule="OC(COc1cccc2ccccc12)CN1CCN(c2ccc(Cl)cc2)CC1 (stereo not given)" recorded_endpoint=TGI measured_number=33.1

Next:
Ask: Param item = COc1cc(/C=C2\CCCC3C2=Nc2ccccc2NC3c2cc(OC)c(OC)c(OC)c2)cc(OC)c1OC (stereo not given) ; retrieve measured TGI.
Result: 8

* * *

# System: EKVX NSCLC
# assay.details: NCI tumour cell line growth inhibition, 48 h
Where a SMILES comes first, the peptide text is derived from it. The star is where a group is joined. Boc = CC(C)(C)OC(=O)*
recorded.endpoint: TGI

compound="NC(=S)N/N=C1\\C(=O)N(CCc2ccccc2)C(=O)C1C(=O)NCCc1ccccc1 (stereo not given)" system="EKVX NSCLC" result="> 100 µM"
compound=CC(C)[C@H]1CO[C@@H]2O[C@H](C)CC(=O)N21 system="EKVX NSCLC" result="> 100 µM"
compound="C=CCC(N[C@@H](CO)c1ccccc1)c1ccccn1 (stereo not given in full)" system="EKVX NSCLC" result="> 100 µM"
compound="COC(=O)/C(=N\\N)C(C(=O)C(=O)Nc1cccc([N+](=O)[O-])c1)c1nc2ccc(C(=O)c3ccccc3)cc2[nH]c1=O (stereo not given)" system="EKVX NSCLC" result="> 100 µM"
compound=CN(C)C(=S)/N=c1\ssc(=S)n1-c1ccccc1 system="EKVX NSCLC" result="43.6 µM"
compound=Clc1nc(Cl)c2ncn(C/C=C/Cn3cnc4c(Cl)nc(Cl)nc43)c2n1 system="EKVX NSCLC" result="36.9 µM"
compound="COC(=O)C(Cc1c[nH]c2ccccc12)NC(=O)C(Cc1c[nH]c2ccccc12)NC(=O)C(Cc1c[nH]c2ccccc12)NC(=O)OC(C)(C)C (stereo not drawn) (Boc-Trp-Trp-Trp-OMe; configuration not given here)" system="EKVX NSCLC" result="> 100 µM"
compound=Nc1ccc2ncc(Nc3ccc(F)cc3)nc2c1 system="EKVX NSCLC" result="> 100 µM"
compound="COc1cc(/C=C2\\CCCC3C2=Nc2ccccc2NC3c2cc(OC)c(OC)c(OC)c2)cc(OC)c1OC (stereo not given)" system="EKVX NSCLC" result="> 100 µM"
compound="C=C(C)C(=O)OC1C(C(C)CCCO)=C(CO)CC2OC(=O)C(=C)C21 (stereo not given)" system="EKVX NSCLC" result="87.2 µM"

Ask: Given the compound C=CC1(c2ccccc2Cl)N/C(=C/OCC)CO1 (stereo not given) , what is its reported TGI?
Result: > 100 µM

Ask: Query (compound): c1ccc(CN2CCCN3CCN(CCCN(Cc4ccccc4)CC3)CC2)cc1 ; field requested: TGI
Result: > 100 µM

Ask: # TGI lookup, item c1ccc(CCCNc2nnnc3ccccc23)cc1
Result: > 100 µM

Cited source for all entries: PubChem BioAssay (NCI)
